- Test system: human Peripheral-type Benzodiazepine Receptor (PBR), TSPO (gene 706) (UniProt P30536)
- Sequence (P30536 whole entry, looked up): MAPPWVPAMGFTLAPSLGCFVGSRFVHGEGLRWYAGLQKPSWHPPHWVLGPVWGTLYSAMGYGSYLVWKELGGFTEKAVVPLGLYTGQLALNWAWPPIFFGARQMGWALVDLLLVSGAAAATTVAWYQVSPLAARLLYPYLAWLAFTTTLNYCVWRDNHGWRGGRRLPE
- Assay explanation: NVS_MP_hPBR: NovaScreen (NVS) Membrane Protein Assay for human Peripheral-type Benzodiazepine Receptor (PBR) (AID 2283331);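 note: hits reduce radioligand binding relative to DMSO baseline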
Records with an inconclusive call do not appear. The source made the active and inactive calls. Rule for the calls: active = hit-call score of the fitted dose curve at least 0.9, where 1 is the maximum; inconclusive = response in the unintended direction; inactive = score below 0.9.
Classes used: 1.0 for active, 0.0 for inactive

{"columns": ["Molecule", "Class assignment"],
 "data": [
  ["COC(=O)Nc1cccc(OC(=O)Nc2cccc(C)c2)c1", 1.0],
  ["CCCCOP(=O)(CCCC)OCCCC", 1.0],
  ["Cc1ccc(OP(=O)(Oc2ccc(C)cc2C)Oc2ccc(C)cc2C)c(C)c1", 1.0],
  ["CCOCn1c(-c2ccc(Cl)cc2)c(C#N)c(Br)c1C(F)(F)F", 1.0],
  ["CCOP(=S)(OCC)O/N=C(\\C#N)c1ccccc1", 0.0],
  ["CCOC(=O)C(SP(=S)(OC)OC)c1ccccc1 (stereo unspecified)", 1.0],
  ["CCOP(=O)(OCC)OC(=CCl)c1ccc(Cl)cc1Cl", 1.0],
  ["COCC(=O)N(c1c(C)cccc1C)[C@H](C)C(=O)OC", 0.0],
  ["CCOC(=O)CCN(SN(C)C(=O)Oc1cccc2c1OC(C)(C)C2)C(C)C", 1.0],
  ["CCOP(=S)(OCC)SCS(=O)(=O)C(C)(C)C", 1.0],
  ["Cc1ccccc1OP(=O)(Oc1ccccc1)Oc1ccccc1", 1.0]
]}

====

- Assay explanation: ACEA_ER_AUC_viability: ACEA Biosciences xCELLigence Real-Time Cell Analysis on Estrogen Receptor Agonism for Viability (AID 2283782);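 note: continuous compound exposure with impedance area under curve over 80 h; hit means loss of impedance signal meaning reduced cell growth or viability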
- Protocol: ACEA_ER is a cell-based, single-readout assay that uses T47D, a human breast cell line, with measurements taken at 80 hours after chemical dosing in a 96-well plate, although TO2 (mc0.srcf) used a 384-well plate. Differences in plate size can be ignored given data normalization.ACEA_ER_AUC_viability is one of two assay component(s) measured or calculated from the ACEA_ER assay. […]
Results filed as inconclusive are left out. Active and inactive are the calls of the source. The calls were made as follows: active = hit-call score of the fitted dose curve at least 0.9, where 1 is the maximum; inconclusive = response in the unintended direction; inactive = score below 0.9.
Outcomes: True (active), False (inactive)

{"columns": ["Compound", "Class assignment"],
 "data": [
  ["O=[N+]([O-])c1ccccc1O", "False"],
  ["CC1(C)[C@H](C(=O)O[C@H](C#N)c2cccc(Oc3ccccc3)c2)[C@@H]1/C=C(\\Cl)C(F)(F)F", "True"],
  ["C=C(C)C(=O)OCC(CC)CCCC (configuration not stated)", "False"],
  ["CCC[CH2][Sn]([CH2]CCC)([CH2]CCC)[CH2]CCC", "True"],
  ["CCOC(=O)Cc1ccccc1", "True"],
  ["O=C(Cl)OCCOCCOC(=O)Cl", "False"],
  ["CC(C)(C)c1ccccc1O", "True"]
]}

====

- Assay explanation: ATG_PBREM_CIS: Attagene CIS-FACTORIAL HepG2 Assay for human Phenobarbital-responsive Enhancer Module (PBREM) (AID 2282955)
- Run parameters: HepG2 PBREM cis-reporter, Attagene multiplexed transcription; actives raise or lower the signal
- Experimental: ATG_CIS is a cell-based, multiplexed-readout assay that uses HepG2, a human liver cell line, with measurements taken at 24 hours after chemical dosing in a 24-well plate.ATG_PBREM_CIS is one of 52 assay component(s) measured or calculated from the ATG_CIS assay. […] This assay endpoint, ATG_PBREM_CIS, was analyzed with bidirectional fitting relative to DMSO as the negative control and baseline of activity. […]
The source made the active and inactive calls. Rule for the calls: active = hit-call score of the fitted dose curve at least 0.9, where 1 is the maximum; inactive = score below 0.9.
Outcome codes: active, inactive

{"columns": ["Compound", "Class assignment"],
 "data": [
  ["Nc1cccnc1", "inactive"],
  ["CCOP(=S)(OCC)OP(=S)(OCC)OCC", "inactive"],
  ["O=C(O)c1cc(I)cc(I)c1I", "inactive"],
  ["C=CCOC(F)(C(F)(F)F)C(F)(F)F", "inactive"],
  ["C#CCOC(=O)/C=C(C)/C=C/CC(C)CCCC(C)C (stereo not drawn)", "inactive"],
  ["CC(C)(C)c1ccc(CCOc2ncnc3ccccc23)cc1", "inactive"],
  ["Nc1ccc(Br)cc1", "inactive"],
  ["Nc1nc(N)nc(Cl)n1", "inactive"],
  ["O=[N+]([O-])c1ccc(Nc2ccccc2)cc1", "active"],
  ["C=CCOC(N)=O", "inactive"],
  ["CCCCCCCCCCCCc1cccc(S(=O)(=O)O)c1", "inactive"],
  ["C[As+](C)(C)CC(=O)[O-]", "inactive"],
  ["Brc1ccc(Oc2c(Br)cc(Br)cc2Br)c(Br)c1", "inactive"],
  ["COP(=S)(OC)Oc1cc(Cl)c(I)cc1Cl", "inactive"],
  ["CCNc1nc(NCC)nc(SC)n1", "inactive"],
  ["ClCc1ccccc1CCl", "inactive"],
  ["Clc1cccc(Cl)c1", "inactive"],
  ["CCCCCCCCCCCCN(C)C", "inactive"],
  ["O=[N+]([O-])c1c2ccccc2cc2ccccc12", "inactive"],
  ["O=C(CCl)NCO", "inactive"],
  ["O=[N+]([O-])c1ccc(Cl)c([N+](=O)[O-])c1", "inactive"],
  ["ClCCCCl", "inactive"],
  ["Cc1cc(Cl)ccc1O", "inactive"],
  ["CCN(CCO)CCO", "inactive"],
  ["CN(N=O)c1ccc([N+](=O)[O-])cc1", "inactive"],
  ["C=CC(F)(C(F)(F)F)C(F)(F)C(F)(F)F (stereo not drawn)", "inactive"],
  ["CC(F)(F)CC(F)(F)F", "inactive"],
  ["COC(=O)c1cc(Oc2ccc(Cl)cc2Cl)ccc1[N+](=O)[O-]", "active"],
  ["Cc1cc(Cl)ccc1N", "inactive"],
  ["NC(=O)CCl", "inactive"],
  ["Nc1ncn[nH]1", "inactive"],
  ["CC1(C)[C@H](/C=C2\\CCSC2=O)[C@@H]1C(=O)OCc1coc(Cc2ccccc2)c1", "active"],
  ["O=S(=O)(Oc1ccc(Cl)cc1)c1ccc(Cl)cc1", "active"],
  ["CC(C)[C@H](C(=O)OC(C#N)c1cccc(Oc2ccccc2)c1)c1ccc(OC(F)F)cc1 (stereo partly drawn)", "active"],
  ["OCCCCO", "inactive"],
  ["CCOC(=O)CCN(SN(C)C(=O)Oc1cccc2c1OC(C)(C)C2)C(C)C", "inactive"],
  ["CC(C)CC(C)(c1ccc(O)cc1)c1ccc(O)cc1", "inactive"],
  ["CC(=O)C(F)(F)C(F)(F)F", "inactive"],
  ["CCC[CH2][Sn]([CH2]CCC)([CH2]CCC)[CH2]CCC", "active"],
  ["Clc1cccc(Cl)c1Cl", "inactive"],
  ["O=C(O)C1(c2ccc3c(c2)OC[C@H](Cc2ccc(-c4ccccc4)cc2)[C@H]3O)CCCC1", "inactive"],
  ["Cc1cccc(N=Nc2ccc(N(C)C)cc2)c1", "inactive"],
  ["O=C(NC(=O)c1c(F)cccc1F)Nc1cc(Cl)c(F)c(Cl)c1F", "inactive"],
  ["O=[N+]([O-])c1cccc2ccccc12", "inactive"],
  ["Nc1ccc(-c2ccccc2)cc1", "inactive"],
  ["CC(C)=CC1C(C(=O)OCc2cccc(Oc3ccccc3)c2)C1(C)C (stereo not drawn)", "inactive"],
  ["c1cc[c]([Sb]([c]2ccccc2)[c]2ccccc2)cc1", "inactive"],
  ["CC(C)(c1ccccc1)c1cc(-n2nc3ccccc3n2)c(O)c(C(C)(C)c2ccccc2)c1", "inactive"],
  ["CC(C)N(C(=O)CCl)c1ccccc1", "inactive"],
  ["c1ccc2sc(SNC3CCCCC3)nc2c1", "inactive"],
  ["CC(C)[C@@H](Nc1ccc(C(F)(F)F)cc1Cl)C(=O)OC(C#N)c1cccc(Oc2ccccc2)c1 (stereo partly drawn)", "active"],
  ["O=CCCl", "active"],
  ["CCCCC(CC)C(=O)Cl (stereo not drawn)", "inactive"],
  ["Oc1c(Br)cc(Br)cc1Br", "active"],
  ["OC(Cc1ccccc1Cl)(Cn1cncn1)C1(Cl)CC1 (stereo not drawn)", "active"],
  ["Oc1cccc(-c2ccccc2)c1", "inactive"],
  ["Nc1c(Oc2ccccc2)cc(O)c2c1C(=O)c1ccccc1C2=O", "inactive"],
  ["N#Cc1ccc(Cl)cc1", "inactive"]
]}

====

- Test system: Androgen Receptor/SRC-1 Co-activator, AR (gene 367)
- Assay explanation: OT_AR_ARSRC1_0960: Odyssey Thera (OT) 16-hour HEK293T Protein-Complementation Assay for Androgen Receptor/SRC-1 Co-activator (AID 2283353);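 note: actives raise the signal above DMSO so potency reflects increased AR and SRC-1 complex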
Active and inactive are the calls of the source. How the source made its calls: active means hit-call score of the fitted dose curve at least 0.9, where 1 is the maximum; inconclusive means response in the unintended direction; inactive means score below 0.9.
Outcomes: yes (1) = active, no (0) = inactive

{"columns": ["Compound", "Test system", "Class assignment"],
 "data": [
  ["COCCl", "Androgen Receptor/SRC-1 Co-activator, AR (gene 367)", "no (0)"],
  ["O=C(CCl)Nc1ccccc1", "Androgen Receptor/SRC-1 Co-activator, AR (gene 367)", "yes (1)"],
  ["Cc1cc(Cl)ccc1OCCCC(=O)O", "Androgen Receptor/SRC-1 Co-activator, AR (gene 367)", "no (0)"],
  ["CC(=Cc1ccccc1)[N+](=O)[O-]", "Androgen Receptor/SRC-1 Co-activator, AR (gene 367)", "yes (1)"],
  ["C=CC(Cl)CCl (stereo not given)", "Androgen Receptor/SRC-1 Co-activator, AR (gene 367)", "no (0)"]
]}
